FYI, the data here is from patent US11993599B2.

- Target entity: UniProt:P51531
- Measurement description: Immunofluorescence assay for BRM degradation in SW1573 cells
- Type: cell-based
- Set-up: treated overnight at 4° C. with either BRM primary antibody (Cell signaling Cat #11966) or BRG primary antibody; endogenous in cells; host or cells: SW1573
- Experimental conditions: 20 hours incubation, immunofluorescence mean nuclear signal, read-out: BRM IF Degradation IC50
Entries and their DC50

Worked examples, 5 compounds total:
{"columns": ["Compound", "Target entity", "DC50"],
 "data": [
  ["Nc1nnc(-c2ccccc2O)cc1N1CC2CCC(C1)N2c1ccnc(C#CC2CNC2)c1", "UniProt:P51531", "10 to 100 nM"],
  ["Nc1nnc(-c2ccccc2O)cc1N1CC2CCC(C1)N2c1ccnc(C#CCN2CC3CC2CC3(F)F)c1 (stereo not shown)", "UniProt:P51531", "< 10 nM"],
  ["Nc1nnc(-c2ccccc2O)cc1N1CC2CCC(C1)N2c1ccnc(C#CCN2CCc3nccn3CC2)c1", "UniProt:P51531", "10 to 100 nM"],
  ["N#CC1CCCN(CC#Cc2cc(N3C4CCC3CN(c3cc(-c5ccccc5O)nnc3N)C4)ccn2)C1 (stereo not shown)", "UniProt:P51531", "10 to 100 nM"],
  ["CC1CCCN(CC#Cc2cc(N3C4CCC3CN(c3cc(-c5ccccc5O)nnc3N)C4)ccn2)CC1 (stereo not shown)", "UniProt:P51531", "< 10 nM"]
]}

**Query** Answer with the recorded DC50 for the compound listed here: CC1(O)CCCN(CC#Cc2cc(N3C4CCC3CN(c3cc(-c5ccccc5O)nnc3N)C4)ccn2)CC1 (stereo not shown)
**Result** 10 to 100 nM

**Query** Answer with the recorded DC50 for the compound listed here: Nc1nnc(-c2ccccc2O)cc1N1CC2CCC(C1)N2c1ccnc(C#CCN2CCC(N)C2)c1 (stereo not shown)
**Result** > 100 nM

---

Entries and their DC50
- Target entity: BRM (Homo sapiens, UniProt P51531)
- Sequence (P51531 whole entry): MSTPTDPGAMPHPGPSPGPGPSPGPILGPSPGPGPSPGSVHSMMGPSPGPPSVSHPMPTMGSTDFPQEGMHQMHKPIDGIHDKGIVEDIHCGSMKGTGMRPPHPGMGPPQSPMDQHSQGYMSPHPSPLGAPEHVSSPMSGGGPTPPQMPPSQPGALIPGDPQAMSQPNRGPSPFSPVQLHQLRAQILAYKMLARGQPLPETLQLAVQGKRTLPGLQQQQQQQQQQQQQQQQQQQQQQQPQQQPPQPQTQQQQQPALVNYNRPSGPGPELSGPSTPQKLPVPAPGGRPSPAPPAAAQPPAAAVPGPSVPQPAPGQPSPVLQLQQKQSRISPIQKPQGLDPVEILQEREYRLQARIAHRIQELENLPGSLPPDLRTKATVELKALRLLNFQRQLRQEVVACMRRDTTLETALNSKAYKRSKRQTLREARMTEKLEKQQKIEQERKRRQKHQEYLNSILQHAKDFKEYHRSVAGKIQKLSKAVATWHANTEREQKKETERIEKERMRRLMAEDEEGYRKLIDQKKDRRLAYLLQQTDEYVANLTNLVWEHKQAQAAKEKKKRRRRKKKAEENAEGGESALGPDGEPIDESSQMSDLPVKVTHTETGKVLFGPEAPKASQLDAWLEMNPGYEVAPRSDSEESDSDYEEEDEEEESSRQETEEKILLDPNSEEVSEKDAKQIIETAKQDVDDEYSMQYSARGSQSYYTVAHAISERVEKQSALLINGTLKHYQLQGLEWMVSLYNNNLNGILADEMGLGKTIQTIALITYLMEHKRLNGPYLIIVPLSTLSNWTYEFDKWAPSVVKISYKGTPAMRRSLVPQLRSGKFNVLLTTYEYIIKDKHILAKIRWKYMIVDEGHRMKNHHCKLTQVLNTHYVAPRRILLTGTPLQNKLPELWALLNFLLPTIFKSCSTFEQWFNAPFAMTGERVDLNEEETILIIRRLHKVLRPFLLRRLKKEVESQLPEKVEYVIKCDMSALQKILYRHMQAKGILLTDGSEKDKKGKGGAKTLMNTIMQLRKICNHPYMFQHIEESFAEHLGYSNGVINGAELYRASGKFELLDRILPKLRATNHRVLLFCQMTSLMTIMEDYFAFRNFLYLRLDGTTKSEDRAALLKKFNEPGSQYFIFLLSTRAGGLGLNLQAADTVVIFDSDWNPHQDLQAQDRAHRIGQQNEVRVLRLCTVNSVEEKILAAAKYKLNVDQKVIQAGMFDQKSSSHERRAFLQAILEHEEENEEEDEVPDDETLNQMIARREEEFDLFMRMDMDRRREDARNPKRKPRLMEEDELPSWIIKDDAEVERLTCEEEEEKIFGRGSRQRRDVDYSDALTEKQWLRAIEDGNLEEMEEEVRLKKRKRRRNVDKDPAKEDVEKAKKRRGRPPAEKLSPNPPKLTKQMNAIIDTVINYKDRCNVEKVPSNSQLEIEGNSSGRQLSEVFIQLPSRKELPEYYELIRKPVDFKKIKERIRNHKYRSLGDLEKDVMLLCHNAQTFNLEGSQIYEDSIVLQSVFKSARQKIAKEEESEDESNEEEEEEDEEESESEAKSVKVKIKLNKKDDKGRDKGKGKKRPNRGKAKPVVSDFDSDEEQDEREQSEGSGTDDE
- Measurement description: Immunofluorescence assay for BRM degradation in SW1573 cells
- Type: cell-based
- Design: treated overnight at 4° C. with either BRM primary antibody (Cell signaling Cat #11966) or BRG primary antibody; endogenous in cells; host or cells: SW1573
- Experimental conditions: 20 hours incubation, immunofluorescence mean nuclear signal, read-out: BRM IF Degradation IC50

Worked examples, 6 molecules total:
{"columns": ["Molecule", "Test readout", "Result"],
 "data": [
  ["Nc1nnc(-c2ccccc2O)cc1N1CC2CCC(C1)N2c1ccnc(C#CCN2CCC3(CCCC3)C2)c1 [Compound 127]", "DC50", "< 10 nM"],
  ["Nc1nnc(-c2ccccc2O)cc1N1CC2CCC(C1)N2c1cnnc(C#CCN2CCCCCC2)c1 [Compound 246]", "DC50", "10 to 100 nM"],
  ["CN(CC#Cc1cc(N2C3CCC2CN(c2cc(-c4ccccc4O)nnc2N)C3)ccn1)CC(=O)N1CCOCC1 [Compound 85]", "DC50", "> 100 nM"],
  ["Nc1nnc(-c2ccccc2O)cc1N1CC2CCC(C1)N2c1ccnc(C#CCN2CC3(CCCO3)C2)c1 [Compound 178]", "DC50", "10 to 100 nM"],
  ["Nc1nnc(-c2ccccc2O)cc1N1CC2CCC(C1)N2c1ccnc(C#CCCO)c1 [Compound 26]", "DC50", "> 100 nM"],
  ["Nc1nnc(-c2ccccc2O)cc1N1CC2CCC(C1)N2c1ccnc(C#CCN2CCCCCC2)n1 [Compound 245]", "DC50", "< 10 nM"]
]}

**Query** Answer with the recorded DC50 for the molecule listed here: Nc1nnc(-c2ccccc2O)cc1N1CC2CCC(C1)N2c1ccnc(C#CCN2CCC[C@]23CCNC3)c1 [Compound 165]
**Result** > 100 nM

**Query** Answer with the recorded DC50 for the molecule listed here: CN(CC#Cc1cc(N2C3CCC2CN(c2cc(-c4ccccc4O)nnc2N)C3)ccn1)CCO [Compound 3]
**Result** 10 to 100 nM

**Query** Answer with the recorded DC50 for the molecule listed here: Nc1nnc(-c2ccccc2O)cc1N1CC2CCC(C1)N2c1ccnc(C#CCN2CCCCCC2CO)c1 (centres unmarked) [Compound 216]
**Result** < 10 nM

**Query** Answer with the recorded DC50 for the molecule listed here: Nc1nnc(-c2ccccc2O)cc1N1CC2CCC(C1)N2c1ccnc(C#CCN2CC3CCC2C3)c1 (centres unmarked) [Compound 141]
**Result** < 10 nM

**Query** Answer with the recorded DC50 for the molecule listed here: Nc1nnc(-c2ccccc2O)cc1N1CC2CCC(C1)N2c1ccnc(C#CCN2CCCN(c3ccncc3)CC2)c1 [Compound 204]
**Result** 10 to 100 nM

**Query** Answer with the recorded DC50 for the molecule listed here: Nc1nnc(-c2ccccc2O)cc1N1CC2CCC(C1)N2c1ccnc(C#CCN2CCOC3CC32)c1 (centres unmarked) [Compound 74]
**Result** 10 to 100 nM

**Query** Answer with the recorded DC50 for the molecule listed here: CC1CN(CC#Cc2cc(N3C4CCC3CN(c3cc(-c5ccccc5O)nnc3N)C4)ccn2)CCCC1O (centres unmarked) [Compound 196]
**Result** < 10 nM

**Query** Answer with the recorded DC50 for the molecule listed here: Nc1nnc(-c2ccccc2O)cc1N1CC2CCC(C1)N2c1ccnc(C#CCN2CCCC3(CC2)CC3(F)F)c1 (centres unmarked) [Compound 208]
**Result** < 10 nM

**Query** Answer with the recorded DC50 for the molecule listed here: COC[C@@H]1CCN1CC#Cc1cc(N2C3CCC2CN(c2cc(-c4ccccc4O)nnc2N)C3)ccn1 [Compound 186]
**Result** < 10 nM

**Query** Answer with the recorded DC50 for the molecule listed here: Nc1nnc(-c2ccccc2O)cc1N1CC2CCC(C1)N2c1ccnc(C#CCN2CCCC3(CC3)C2)c1 [Compound 99]
**Result** < 10 nM

**Query** Answer with the recorded DC50 for the molecule listed here: Nc1nnc(-c2ccccc2O)cc1N1CC2CCC(C1)N2c1ccnc(C#CCN2CC(C(F)(F)F)C2)c1 [Compound 232]
**Result** 10 to 100 nM

**Query** Answer with the recorded DC50 for the molecule listed here: Nc1nnc(-c2ccccc2O)cc1N1CC2CCC(C1)N2c1ccnc(C#CCN2C[C@H]3CCCC[C@H]3C2)c1 [Compound 60]
**Result** < 10 nM

**Query** Answer with the recorded DC50 for the molecule listed here: Nc1nnc(-c2ccccc2O)cc1N1CC2CCC(C1)N2c1ccnc(C#CCN2CCCC(CO)CC2)c1 (centres unmarked) [Compound 215]
**Result** < 10 nM

**Query** Answer with the recorded DC50 for the molecule listed here: NCCCc1cc(N2C3CCC2CN(c2cc(-c4ccccc4O)nnc2N)C3)ccn1 [Compound 33]
**Result** > 100 nM

**Query** Answer with the recorded DC50 for the molecule listed here: CC1(C)CC(O)C(O)CN(CC#Cc2cc(N3C4CCC3CN(c3cc(-c5ccccc5O)nnc3N)C4)ccn2)C1 (centres unmarked) [Compound 210]
**Result** > 100 nM

**Query** Answer with the recorded DC50 for the molecule listed here: Nc1nnc(-c2ccccc2O)cc1N1CC2CCC(C1)N2c1ccnc(C#CCN2CCC3CCCC32)c1 (centres unmarked) [Compound 94]
**Result** < 10 nM

**Query** Answer with the recorded DC50 for the molecule listed here: CC1CCCN(CC#Cc2cc(N3C4CCC3CN(c3cc(-c5ccccc5O)nnc3N)C4)ccn2)C1 (centres unmarked) [Compound 61]
**Result** < 10 nM
